Please respond with reported pIC50 for every item in the list.
Experimental system: UniProt:Q12809
Sequence (Q12809 whole entry): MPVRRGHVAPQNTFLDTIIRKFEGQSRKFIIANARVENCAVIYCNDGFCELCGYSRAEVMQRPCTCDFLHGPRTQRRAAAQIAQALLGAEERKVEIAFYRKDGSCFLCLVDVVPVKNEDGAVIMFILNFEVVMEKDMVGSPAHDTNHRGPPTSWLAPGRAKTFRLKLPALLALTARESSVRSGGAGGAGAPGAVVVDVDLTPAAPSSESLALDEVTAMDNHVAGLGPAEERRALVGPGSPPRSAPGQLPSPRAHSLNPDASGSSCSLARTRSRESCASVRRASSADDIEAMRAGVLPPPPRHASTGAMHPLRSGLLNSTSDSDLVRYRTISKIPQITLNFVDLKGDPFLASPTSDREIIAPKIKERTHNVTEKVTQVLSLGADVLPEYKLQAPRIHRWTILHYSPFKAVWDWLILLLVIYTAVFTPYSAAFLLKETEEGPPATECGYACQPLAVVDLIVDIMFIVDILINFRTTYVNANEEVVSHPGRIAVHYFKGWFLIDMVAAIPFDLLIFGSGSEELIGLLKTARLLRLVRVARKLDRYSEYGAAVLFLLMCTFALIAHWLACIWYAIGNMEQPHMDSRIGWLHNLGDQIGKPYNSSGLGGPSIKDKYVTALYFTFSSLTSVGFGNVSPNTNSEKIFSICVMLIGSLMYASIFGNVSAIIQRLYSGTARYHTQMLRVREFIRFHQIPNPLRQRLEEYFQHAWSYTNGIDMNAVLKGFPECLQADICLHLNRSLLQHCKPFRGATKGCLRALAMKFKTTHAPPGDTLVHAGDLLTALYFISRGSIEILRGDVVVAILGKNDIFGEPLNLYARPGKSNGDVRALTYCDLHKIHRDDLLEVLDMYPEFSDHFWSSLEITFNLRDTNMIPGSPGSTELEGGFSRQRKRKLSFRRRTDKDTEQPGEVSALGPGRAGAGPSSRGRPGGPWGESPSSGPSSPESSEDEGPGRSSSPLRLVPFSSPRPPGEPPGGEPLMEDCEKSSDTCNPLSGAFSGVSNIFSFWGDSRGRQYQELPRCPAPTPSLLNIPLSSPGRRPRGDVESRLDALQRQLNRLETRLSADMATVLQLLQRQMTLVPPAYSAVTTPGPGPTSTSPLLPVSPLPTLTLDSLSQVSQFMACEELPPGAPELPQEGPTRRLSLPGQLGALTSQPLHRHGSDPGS
Assay method text: hERG inhibition, automated planar patch-clamp in hERG-expressing CHO cells
Stated conditions: read-out: Test Example 5 hERG IC50; whole-cell patch clamp, room temperature
pIC50: −log10 of the molar value.

Some solved cases for reference:
NC1=NC2(CO1)c1cc(Br)ccc1OC(Cc1ccccc1)C21COC1 (single isomer, unassigned) [RP 15a] | < 5.00
CC1(C)Oc2ccc(NC(=O)c3cnc(C(F)F)cn3)cc2[C@@]2(COC(N)=N2)C12CC2 | 4.82

Tell us which pIC50 value is on record for NC1=NC2(CO1)c1cc(-c3cncnc3)ccc1OC(CC1CC1)C21COC1 (stereo not drawn) [RP 207]
< 5.00

* * *

Experimental system: UniProt P56817
Assay method text: Measurement of BACE1 inhibition by fluorescence resonance energy transfer (FRET), MCA substrate
Stated conditions: read-out: Test Example 1 IC50; FRET, MCA-SEVNLDAEFK(DNP)-NH2 substrate, pH 4.4
Reported endpoint: pIC50
One number for each entry, as −log10 of the molar value.

List reported pIC50 for each of these compounds:
1. N#Cc1cccc(-c2ccc3c(c2)C2(COC(N)=N2)C2(COC2)C2(CCC2)O3)c1 (stereo not drawn)
2. CCOc1cc(F)cc(-c2ccc3c(c2)C2(COC(N)=N2)C2(COC2)C2(CCC2)O3)c1 (stereo not drawn)
3. NC1=NC2(CO1)c1cc(-c3cncnc3)ccc1OC(CC1CC1)C21COC1 (stereo not drawn) [RP 204]
4. NC1=NC2(CO1)c1cc(-c3cncnc3)ccc1OCC21CCCO1 (stereo not drawn) [RP 98]
5. NC1=NC2(CO1)c1cc(Br)ccc1OC(CC1CC1)C21COC1 (single isomer, unassigned) [RP 16a]
6. CCOc1cc(-c2ccc3c(c2)C2(COC(N)=N2)C2(COC2)C2(CCC2)O3)cc(C(F)(F)F)c1 (stereo not drawn)
7. CC1(C)Oc2ccc(-c3ccccc3OC(F)(F)F)cc2C2(COC(N)=N2)C12COC2 (stereo not drawn)
8. CC1(C)Oc2ccc(-c3cncc(C#N)c3)cc2C2(COC(N)=N2)C12COC2 (stereo not drawn)

1: 5.77; 2: 5.78; 3: 6.41; 4: 4.19; 5: 5.02; 6: 5.66; 7: 5.55; 8: 6.01

Lab note: each compound below needs its pIC50 filled in.
1. COc1cc(-c2ccc3c(c2)C2(COC(N)=N2)C2(COC2)C(C)(C)O3)c(F)cn1 (stereo not drawn)
2. NC1=NC2(CO1)c1cc(Br)c(F)cc1OCC21CC1 (stereo not drawn)
3. CCOc1cccc(-c2ccc3c(c2)C2(COC(N)=N2)C2(COC2)C(C)(C)O3)c1 (stereo not drawn)

[5.85, 4.38, 6.06]

* * *

Experimental system: BACE1 (Homo sapiens (Human), UniProt P56817)
Sequence (P56817 75-416): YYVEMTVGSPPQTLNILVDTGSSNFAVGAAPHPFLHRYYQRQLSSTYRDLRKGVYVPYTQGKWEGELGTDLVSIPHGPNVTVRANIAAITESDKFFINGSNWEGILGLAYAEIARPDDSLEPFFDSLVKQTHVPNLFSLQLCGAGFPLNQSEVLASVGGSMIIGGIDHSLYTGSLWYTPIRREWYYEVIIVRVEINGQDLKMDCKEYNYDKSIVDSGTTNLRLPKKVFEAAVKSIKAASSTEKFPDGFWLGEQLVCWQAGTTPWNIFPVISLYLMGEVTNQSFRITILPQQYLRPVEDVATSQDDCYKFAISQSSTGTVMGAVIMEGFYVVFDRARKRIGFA
Assay method text: Measurement of BACE1 inhibition by fluorescence resonance energy transfer (FRET), MCA substrate
Stated conditions: read-out: Test Example 1 IC50; FRET, MCA-SEVNLDAEFK(DNP)-NH2 substrate, pH 4.4
Reported endpoint: pIC50
Give bare numbers, as −log10 of the molar value.

COCCCc1ccc2c(c1)C1(COC(N)=N1)C1(COC1)CO2 (centres unmarked) | 4.59
NC1=NC2(CO1)c1cc(Br)ccc1OC(CCC(F)(F)F)C21COC1 (single isomer, unassigned) [RP 14b] | 4.35
CCC1Oc2ccc(Br)cc2C2(COC(N)=N2)C12COC2 (single isomer, unassigned) [RP 9b] | 4.61
N#Cc1ncccc1-c1ccc2c(c1)C1(COC(N)=N1)C1(COC1)C1(CCC1)O2 (centres unmarked) | 5.48
CC1(C)Oc2ccc(-c3cc(Cl)cnc3Cl)cc2C2(COC(N)=N2)C12COC2 (centres unmarked) | 6.16
NC1=NC2(CO1)c1cc(-c3cncc(Cl)c3)ccc1OCC21CC1 (centres unmarked) | 5.97

Consider the following items and state reported pIC50 for each.
1. NC1=NC2(CO1)c1cc(Br)ccc1OCC21CCCO1 (single isomer, unassigned) [RP 1a]
2. NC1=NC2(CO1)c1cc(-c3cccnc3C(F)(F)F)ccc1OC1(CCC1)C21COC1 (centres unmarked)

1. 4.13
2. 4.75

Data credit: patent US8975415B2
